B1: C8orf76 (parent)
chain: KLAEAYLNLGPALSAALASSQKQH

Variants of: B1
measurement_notes: protein stability index of a GFP-peptide fusion (GPS, HEK-293T) (PSI 1-6); higher = more stable;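 note: lentivirally expressed fusions sorted by FACS into six bins by GFP to DsRed ratio, PSI derived from sequencing read proportions per bin multiplied by bin number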
measurement_conditions: c terminus: a fixed tail appended
Below: a set of entries, each annotated with reported protein stability index.

[
  {
    "mutant_label": "A16Y",
    "measure_name": "protein stability index",
    "reported": 2.95
  },
  {
    "mutant_label": "S14A",
    "measure_name": "protein stability index",
    "reported": 1.47
  },
  {
    "mutant_label": "A3H",
    "measure_name": "protein stability index",
    "reported": 2.29
  }
]

Request the reported protein stability index associated with "K22C"
3.44

Request the reported protein stability index associated with "G10W"
1.61

Request the reported protein stability index associated with "S19E"
2.95

Request the reported protein stability index associated with "K22E"
4.71

Request the reported protein stability index associated with "N8G"
2.5

Request the reported protein stability index associated with "G10S"
2.51

Request the reported protein stability index associated with "L13Y"
2.14

Request the reported protein stability index associated with "S20W"
3.33

Request the reported protein stability index associated with "N8R"
3.8

Data credit: the supplement of paper PMC10567573
